# study.system: Protein kinase C gamma type (Homo sapiens) (UniProt P05129);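 note: each value is an averaged percent inhibition of the enzyme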
# measurement.setup: at 1 µM
# inhibition >= 3% gives 1.0, anything below gives 0.0

>>> print(df.to_string())
                           substance_smiles  group_label
0  CCS(=O)(=O)c1ccc(OC)c(Nc2ncc(-c3cccc(F)c3)o2)c1          1.0
1  Cc1c2ccc(N(C)c3ccnc(Nc4cccc(S(N)(=O)=O)c4)n3)cc2nn1C          1.0
2    Cc1ccc(-c2cc3c(NC(=O)C4CC4)ncnc3o2)cc1          0.0
3  COc1cc(N2CCN(C(C)C)CC2)ccc1Nc1nc(Nc2cccc(F)c2C(=O)O)c2cc[nH]c2n1          1.0

###

# study.system: Mitogen-activated protein kinase 11 (Homo sapiens);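 note: reported values are averaged (mean) percent inhibition of p38beta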
# measurement.setup: at 0.1 µM
quantity.kind: inhibition (%)

                           substance_smiles                              study_system  observed
0  CC1(C)CC(n2cnc(-c3ccc(F)cc3)c2-c2ccnc(N)n2)CC(C)(C)N1  Mitogen-activated protein kinase 11 (Homo sapiens)      13.6
1  Cc1nnc(-c2cccc(-c3ccc(C(=O)NCC4CC4)cc3)c2)o1  Mitogen-activated protein kinase 11 (Homo sapiens)      3.66
2  COc1cc2c(cc1Nc1nc(Nc3cccc(F)c3C(N)=O)c3cc[nH]c3n1)N(C(=O)CN1CCN(C(C)C)CC1)CC2  Mitogen-activated protein kinase 11 (Homo sapiens)      2.96
3  CCN1CCC(C(=O)Nc2n[nH]c3nnc(-c4cccc(F)c4F)cc23)CC1  Mitogen-activated protein kinase 11 (Homo sapiens)      0.08
4  CN(C)CCNC(=O)Nc1ccc(N(C)c2ccnc(Nc3ccc(CS(C)(=O)=O)cc3)n2)cc1  Mitogen-activated protein kinase 11 (Homo sapiens)      2.16
5  CC(C)c1ccc(-c2cc(-c3c[nH]nc3-c3ccccn3)ccn2)cc1  Mitogen-activated protein kinase 11 (Homo sapiens)      1.06
6  CN(c1ccc(NC(=O)NCCN2CCOCC2)cc1)c1ccnc(Nc2ccc(CS(C)(=O)=O)cc2)n1  Mitogen-activated protein kinase 11 (Homo sapiens)      4.13
7  O=C(O[C@H]1CN[C@H](C#Cc2cc3ncnc(Nc4ccc(OCc5cccc(F)c5)c(Cl)c4)c3s2)C1)N1CCOCC1  Mitogen-activated protein kinase 11 (Homo sapiens)      5.95
8    CCn1c(-c2nonc2N)nc2cncc(C(=O)NCCNC)c21  Mitogen-activated protein kinase 11 (Homo sapiens)      4.08

###

# inhibition per record follows
# study.system: Sphingosine kinase 1 (Homo sapiens);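 note: mean SPHK1 inhibition value reported from the GSK PKIS kinase panel screen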
# measurement.setup: at 1 µM
quantity.kind: inhibition (%)

                           substance_smiles                         study_system  quantity_kind  observed
0  Fc1ccc(Nc2nccc(-c3c(-c4ccc(C(F)(F)F)cc4)nn4ncccc34)n2)cc1F  Sphingosine kinase 1 (Homo sapiens)     inhibition     -1.66
1  Fc1cccc(COc2ccc(Nc3ncncc3C#Cc3ccccc3)cc2Cl)c1  Sphingosine kinase 1 (Homo sapiens)     inhibition     -2.79
2     COc1cccc(Nc2nccc(-c3cnn4ncccc34)n2)c1  Sphingosine kinase 1 (Homo sapiens)     inhibition     -2.02
3  NS(=O)(=O)c1cccc(N/C=C2\C(=O)Nc3ccccc32)c1  Sphingosine kinase 1 (Homo sapiens)     inhibition      -0.2
4  N#Cc1ccc2c(-c3ccnc(NC4CC4)n3)c(-c3ccc(F)cc3)nn2c1  Sphingosine kinase 1 (Homo sapiens)     inhibition      0.88
5  Cc1nnc(-c2cccc(-c3ccc(C(=O)NCC4CC4)cc3)c2)o1  Sphingosine kinase 1 (Homo sapiens)     inhibition     -1.04
6  CCS(=O)(=O)c1ccc(OC)c(Nc2ncc(-c3cccc(F)c3)o2)c1  Sphingosine kinase 1 (Homo sapiens)     inhibition      0.12
7  Cc1cc(O)cc(C)c1/C=C/c1cncc(C(=O)OC(C)(C)C)c1  Sphingosine kinase 1 (Homo sapiens)     inhibition     -1.82
8                 Cn1c(-c2nonc2N)nc2cnccc21  Sphingosine kinase 1 (Homo sapiens)     inhibition      3.87
9  O=C(O[C@H]1CN[C@H](C#Cc2cc3ncnc(Nc4ccc5c(ccn5Cc5cc(F)ccc5F)c4)c3s2)C1)N1CCOCC1  Sphingosine kinase 1 (Homo sapiens)     inhibition     -2.46

###

# study.system: Serine/threonine-protein kinase SIK2 (Homo sapiens) (UniProt Q9H0K1)
# Sequence (Q9H0K1 whole entry, looked up): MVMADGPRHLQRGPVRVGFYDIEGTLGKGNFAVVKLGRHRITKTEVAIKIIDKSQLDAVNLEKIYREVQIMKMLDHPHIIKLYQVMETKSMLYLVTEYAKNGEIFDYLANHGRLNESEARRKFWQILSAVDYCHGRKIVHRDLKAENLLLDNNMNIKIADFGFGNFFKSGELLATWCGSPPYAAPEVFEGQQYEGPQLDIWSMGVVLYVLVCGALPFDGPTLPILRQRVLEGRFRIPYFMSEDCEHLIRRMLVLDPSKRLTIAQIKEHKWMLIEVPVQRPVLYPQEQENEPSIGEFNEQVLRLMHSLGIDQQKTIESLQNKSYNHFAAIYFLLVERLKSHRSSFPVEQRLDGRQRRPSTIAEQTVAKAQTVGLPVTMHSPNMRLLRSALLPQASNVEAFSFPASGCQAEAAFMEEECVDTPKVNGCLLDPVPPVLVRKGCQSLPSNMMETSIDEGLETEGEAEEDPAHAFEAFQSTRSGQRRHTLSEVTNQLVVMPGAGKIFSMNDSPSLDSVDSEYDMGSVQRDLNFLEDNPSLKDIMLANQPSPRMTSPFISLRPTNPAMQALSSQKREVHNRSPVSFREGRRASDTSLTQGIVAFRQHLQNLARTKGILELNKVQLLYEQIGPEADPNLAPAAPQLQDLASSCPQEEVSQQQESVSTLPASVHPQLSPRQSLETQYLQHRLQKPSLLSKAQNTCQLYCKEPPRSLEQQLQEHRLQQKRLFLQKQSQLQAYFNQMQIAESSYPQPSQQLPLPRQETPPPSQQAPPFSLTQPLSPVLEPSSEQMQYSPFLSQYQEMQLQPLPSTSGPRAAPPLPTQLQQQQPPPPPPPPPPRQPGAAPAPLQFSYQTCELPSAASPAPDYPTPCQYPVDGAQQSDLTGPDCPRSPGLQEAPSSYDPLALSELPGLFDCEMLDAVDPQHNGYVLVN
# measurement.setup: at 0.1 µM
# Description: GSK_PKIS: SNF1LK2 (QIK) mean inhibition at 0.1 uM [Nanosyn]
quantity.kind: inhibition (%)

>>> print(df.to_string())
                                   molecule  observed
0  COc1ccc2ncn(-c3cc(O[C@H](C)c4ccccc4C(F)(F)F)c(C(N)=O)s3)c2c1      4.06
1  NS(=O)(=O)c1cccc(N/C=C2\C(=O)Nc3ccccc32)c1     -0.72
2  CC1=C(C(=O)Nc2ccc3[nH]ncc3c2)C(c2ccc(F)cc2)N=C(c2ccc(C(F)(F)F)nc2)N1 (stereo not given)      2.09
3  COc1c(C(N)=O)cc(-c2ccc(Cl)cc2)cc1-c1ccc(S(N)(=O)=O)cc1      8.28
4       COc1cc(Nc2ncc(-c3ccccc3)o2)cc(OC)c1      7.38
5  Cc1c2ccc(N(C)c3ccnc(Nc4cccc(S(N)(=O)=O)c4)n3)cc2nn1C      3.64
6  NC(=O)c1ccc2c(-c3ccnc(NCCCO)n3)c(-c3ccc(F)cc3)nn2c1      9.22
7      Cc1cc(O)cc(C)c1/C=C/c1cncc(C(N)=O)c1      6.79
8  CS(=O)(=O)CCNCc1ccc(-c2ccc3ncnc(Nc4ccc(OCc5cccc(C(F)(F)F)c5)cc4)c3c2)o1       6.4
9  CC(C)c1ccc(-c2cc(-c3c[nH]nc3-c3ccccn3)ccn2)cc1      -2.6

###

# inhibition per record follows
# study.system: Protein kinase C beta type (Homo sapiens) (UniProt P05771);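 note: mean inhibition value, enzyme form tested was the PKC-beta1 splice variant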
# Sequence (P05771 2-671 limits assumed): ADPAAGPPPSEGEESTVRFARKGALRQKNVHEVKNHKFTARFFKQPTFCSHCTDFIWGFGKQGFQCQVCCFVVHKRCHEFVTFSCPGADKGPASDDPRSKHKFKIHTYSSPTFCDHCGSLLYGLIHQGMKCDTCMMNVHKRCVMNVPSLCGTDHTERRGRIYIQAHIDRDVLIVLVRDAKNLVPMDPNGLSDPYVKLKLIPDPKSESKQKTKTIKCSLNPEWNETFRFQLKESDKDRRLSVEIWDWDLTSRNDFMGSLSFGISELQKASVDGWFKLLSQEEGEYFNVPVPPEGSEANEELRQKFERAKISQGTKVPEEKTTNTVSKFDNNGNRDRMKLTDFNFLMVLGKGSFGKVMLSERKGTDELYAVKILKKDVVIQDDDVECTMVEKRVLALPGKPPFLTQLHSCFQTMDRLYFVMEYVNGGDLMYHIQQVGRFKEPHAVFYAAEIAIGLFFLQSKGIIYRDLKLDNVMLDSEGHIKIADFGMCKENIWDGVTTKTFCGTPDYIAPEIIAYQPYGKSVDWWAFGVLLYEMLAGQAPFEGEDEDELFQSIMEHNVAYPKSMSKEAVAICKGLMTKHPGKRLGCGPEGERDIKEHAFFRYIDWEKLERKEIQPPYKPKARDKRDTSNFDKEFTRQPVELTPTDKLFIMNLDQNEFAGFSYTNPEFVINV
# measurement.setup: at 1 µM
# Description: GSK_PKIS: PKC-beta1 (splice variant) mean inhibition at 1 uM [Nanosyn]
quantity.kind: inhibition (%)

                           substance_smiles  unit_spec  observed
0         COc1ccc(Nc2ncc(-c3ccccc3)o2)cc1OC          %      3.24
1  NC(=O)c1ccc2c(-c3ccnc(NCCCO)n3)c(-c3ccc(F)cc3)nn2c1          %      17.5
2  Cc1c2ccc(N(C)c3ccnc(Nc4cccc(S(N)(=O)=O)c4)n3)cc2nn1C          %     -0.52
3    CCn1c(-c2nonc2N)nc2cncc(C(=O)NCCNC)c21          %      74.4
4  c1ccc(-c2n[nH]cc2-c2ccnc(-c3ccc(OCCn4ccnc4)cc3)c2)nc1          %      0.68
5      Cc1cc(O)cc(C)c1/C=C/c1cncc(C(N)=O)c1          %     -2.09
6  COc1ccc2ncn(-c3cc(O[C@H](C)c4ccccc4C(F)(F)F)c(C(N)=O)s3)c2c1          %      1.04
7  CN(C)CCNC(=O)Nc1ccc(N(C)c2ccnc(Nc3ccc(CS(C)(=O)=O)cc3)n2)cc1          %      0.12
8  NS(=O)(=O)c1ccc(N/N=C2\C(=O)Nc3ccc(C(=O)NCc4ccncc4)cc32)cc1          %      5.08
9  COc1cc(N2CCN(C(C)C)CC2)ccc1Nc1nc(Nc2cccc(F)c2C(=O)O)c2cc[nH]c2n1          %      3.07

###

# study.system: NUAK family SNF1-like kinase 1 (Homo sapiens) (UniProt O60285)
# Sequence (O60285 whole entry): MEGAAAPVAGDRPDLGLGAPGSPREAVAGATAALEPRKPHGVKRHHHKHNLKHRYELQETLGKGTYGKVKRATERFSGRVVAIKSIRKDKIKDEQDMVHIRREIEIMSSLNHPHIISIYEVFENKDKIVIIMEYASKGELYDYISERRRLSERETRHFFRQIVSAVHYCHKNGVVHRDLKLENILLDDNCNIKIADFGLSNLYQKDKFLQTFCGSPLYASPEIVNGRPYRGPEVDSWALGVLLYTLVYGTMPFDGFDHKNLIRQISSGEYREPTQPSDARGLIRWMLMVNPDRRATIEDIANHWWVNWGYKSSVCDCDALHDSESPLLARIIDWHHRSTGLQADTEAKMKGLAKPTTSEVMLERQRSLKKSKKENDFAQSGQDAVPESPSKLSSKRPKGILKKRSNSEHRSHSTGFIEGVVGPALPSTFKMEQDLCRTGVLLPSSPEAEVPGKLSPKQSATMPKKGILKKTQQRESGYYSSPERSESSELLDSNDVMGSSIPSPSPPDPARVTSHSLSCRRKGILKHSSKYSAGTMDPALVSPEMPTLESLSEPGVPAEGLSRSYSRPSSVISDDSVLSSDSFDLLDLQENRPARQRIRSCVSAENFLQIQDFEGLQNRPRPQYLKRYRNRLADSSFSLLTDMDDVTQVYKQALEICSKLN
# measurement.setup: at 1 µM
# Description: GSK_PKIS: ARK5 mean inhibition at 1 uM [Nanosyn]
quantity.kind: inhibition (%)

                                   compound                              study_system  quantity_kind  unit_spec  observed
0    Cc1ccc(-c2cc3c(NC(=O)C4CC4)ncnc3o2)cc1  NUAK family SNF1-like kinase 1 (Homo sapiens) (UniProt O60285)     inhibition          %      6.68
1  CC(C)c1ccc(-c2cc(-c3c[nH]nc3-c3ccccn3)ccn2)cc1  NUAK family SNF1-like kinase 1 (Homo sapiens) (UniProt O60285)     inhibition          %      0.75
2                 Cn1c(-c2nonc2N)nc2cnccc21  NUAK family SNF1-like kinase 1 (Homo sapiens) (UniProt O60285)     inhibition          %      4.88
3    O=C(Nc1n[nH]c2nnc(-c3cccnc3)cc12)C1CC1  NUAK family SNF1-like kinase 1 (Homo sapiens) (UniProt O60285)     inhibition          %      0.53
4  CC1=C(C(=O)Nc2ccc3[nH]ncc3c2)C(c2ccc(F)cc2)N=C(c2ccc(C(F)(F)F)nc2)N1 (stereo not given)  NUAK family SNF1-like kinase 1 (Homo sapiens) (UniProt O60285)     inhibition          %     -3.57
5  COc1ccccc1-c1cc(/C=C2\C(=O)Nc3ncc(Br)cc32)cc(Br)c1O  NUAK family SNF1-like kinase 1 (Homo sapiens) (UniProt O60285)     inhibition          %      6.09
6  CCS(=O)(=O)c1ccc(OC)c(Nc2ncc(-c3cccc(F)c3)o2)c1  NUAK family SNF1-like kinase 1 (Homo sapiens) (UniProt O60285)     inhibition          %      12.5
7  O=C(O[C@H]1CN[C@H](C#Cc2cc3ncnc(Nc4ccc(OCc5cccc(F)c5)c(Cl)c4)c3s2)C1)N1CCOCC1  NUAK family SNF1-like kinase 1 (Homo sapiens) (UniProt O60285)     inhibition          %      0.97
8  NS(=O)(=O)c1cccc(N/C=C2\C(=O)Nc3ccccc32)c1  NUAK family SNF1-like kinase 1 (Homo sapiens) (UniProt O60285)     inhibition          %      35.8
9  Fc1ccc(Nc2nccc(-c3c(-c4ccc(C(F)(F)F)cc4)nn4ncccc34)n2)cc1F  NUAK family SNF1-like kinase 1 (Homo sapiens) (UniProt O60285)     inhibition          %      1.57

Data origin, for the record: ChEMBL document CHEMBL1961873
